- Experimental Target: T1, His-tagged mouse B7-H3 (mouse, UniProt Q8VE98 29-244, limits assumed)
- T1 construct: Bought His-tagged protein coated on the ELISA plate; also called mu B7-H3; murine B7-H3
- T1 sequence (looked up): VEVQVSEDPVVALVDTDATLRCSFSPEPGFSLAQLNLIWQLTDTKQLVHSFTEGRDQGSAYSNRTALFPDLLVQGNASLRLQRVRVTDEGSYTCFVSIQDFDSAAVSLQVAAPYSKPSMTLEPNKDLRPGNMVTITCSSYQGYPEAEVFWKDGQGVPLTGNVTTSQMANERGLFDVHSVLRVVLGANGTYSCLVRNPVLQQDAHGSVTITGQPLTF
- Test: ELISA, coated His-tagged antigen, scFv-Fc 1 ug/ml
- Method: The variable regions of heavy and light chains were cloned and assembled into a single chain Fv-Fc (ScFv-Fc) mammalian expression vector. Sanger sequencing was performed by GeneWiz and sequences were evaluated using DNASTAR Lasergene 15. Unique scFv-Fes were transiently expressed in Expi293 cells (Life Technologies, #A14527) grown in Expi293 Expression Medium (Life Technologies, #A1435101) after transfection using the ExpiFectamine transfection reagent and supplements (Life Technologies, #A14524). […]
Measurement Type: ELISA OD450 @ 1 ug/ml (OD450)
Quick reminder: number only, in OD450, skip the unit.

Problem: In one line, give reported ELISA OD450 @ 1 ug/ml of the entry 40633p1.2.A8 (scFv, V domains shown, Tested as scFv-Fc (Expi293 supernatant)) VH: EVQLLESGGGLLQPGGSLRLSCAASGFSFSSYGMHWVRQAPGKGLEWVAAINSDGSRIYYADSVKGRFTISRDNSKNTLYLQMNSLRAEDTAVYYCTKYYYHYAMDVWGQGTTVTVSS VL: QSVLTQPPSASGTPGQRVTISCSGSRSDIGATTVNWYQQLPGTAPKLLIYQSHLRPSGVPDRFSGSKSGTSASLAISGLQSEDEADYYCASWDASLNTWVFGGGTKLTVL .
Result: 1.95
